# Procedure details: solvent given as SMILES
# Settings: in CC#N
Listed next: entries and their corresponding absorption maximum.
Include the unit right after the number.

In the examples that follow, each entry is paired with its recorded absorption maximum.
>  <Compound>
CN1\C(=C/C=C/C=C/C2=C3C=CC(c4ccccc4)=[N+]3[B-](F)(F)n3c2ccc3-c2ccccc2)C(C)(C)c2ccccc21

>  <absorption maximum>
771 nm

$$$$
>  <Compound>
CN(C)c1ccc(C2=Nc3sc4cc(C(F)(F)F)ccc4[n+]3[B-](F)(F)O2)cc1

>  <absorption maximum>
427 nm

$$$$
>  <Compound>
COc1cc(/C=C2/SC(=O)NC2=O)ccc1O

>  <absorption maximum>
354 nm

$$$$
>  <Compound>
COC(=O)C(NC(=O)OC(C)(C)C)c1ccc2oc(-c3ccc(C#N)cc3)nc2c1 (stereo unspecified)

>  <absorption maximum>
333 nm

$$$$
>  <Compound>
Cc1ccccc1/C(C#N)=C/c1ccc(N(C)C)cc1

>  <absorption maximum>
377 nm

$$$$
>  <Compound>
F[B-]1(F)n2c(-c3cccs3)cc(-c3ccccc3)c2N=C2C(c3ccccc3)=CC(c3cccs3)=[N+]21

>  <absorption maximum>
710 nm

$$$$

The reported value for Cc1cc(O)c(C(=O)/C=C/c2ccc(Cl)cc2)c(=O)o1 in terms of absorption maximum is 357 nm

Record c1cc2c3c(cccc3c1)C(N1CCOCCOCCOCCOCC1)=N2 , field absorption maximum: 427 nm

For record CCCn1c2cccc3c2[c+]2c4c1cccc4n(CCC)c1cccc(c12)n3CCC the listed absorption maximum is 521 nm

Lookup result for O=C(O)c1cc2c(ccc3ccccc32)oc1=O ; measured absorption maximum: 376 nm

The reported absorption maximum of the compound N#Cc1cccc2cc[nH]c12 was 309.69 nm

====

# Procedure details: solvent given as SMILES
# Settings: in CO
Quantity kind: absorption maximum (nm)
Answer in nm, number only, no unit symbol.

Example entries begin here.
>  <Chemical structure>
CCCCCCCCCCCCCCCCN(CCCCCCCCCCCCCCCC)c1ccc(/C=C/c2cc[n+](Cc3cc(C[n+]4ccc(/C=C/c5ccc(N(CCCCCCCCCCCCCCCC)CCCCCCCCCCCCCCCC)cc5)cc4)cc(C[n+]4ccc(/C=C/c5ccc(N(CCCCCCCCCCCCCCCC)CCCCCCCCCCCCCCCC)cc5)cc4)c3)cc2)cc1

>  <absorption maximum (nm)>
509

$$$$
>  <Chemical structure>
CCc1s[c+](N2CCCCC2)sc1-c1cc(C)cc(I)c1[O-]

>  <absorption maximum (nm)>
360

$$$$

So for Cc1c2ccncc2c(C)c2c1[nH]c1ccccc12 , the logged absorption maximum turned out to be 294

====

# Procedure details: solvent given as SMILES
# Settings: in Cc1ccccc1
Quantity kind: absorption maximum (nm)
Record the value in nm, omitting the unit from your answer.

>  <Compound>
CCCCC(CC)CN1C(=O)c2cccc3c(C#Cc4ccc(N(c5ccccc5)c5ccc(C#Cc6ccc7c8c(cccc68)C(=O)N(CC(CC)CCCC)C7=O)cc5)cc4)ccc(c23)C1=O (configuration not stated)

>  <Uom>
nm

>  <Meas value>
452

$$$$

For COc1ccc2oc(-c3cc4cc(OC)ccc4oc3=O)cc2c1 the compound record lists absorption maximum as 388

// absorption maximum value for CN(C)c1ccc(-c2nc3c(c4c2-c2ccc(C#N)cc2CC4)-c2ccc(C#N)cc2CC3)cc1 : 344

// absorption maximum lookup, compound = O=C1c2ccccc2C(=O)N1c1ccc(Cn2cncn2)cc1 , result: 283

Quick note, absorption maximum for CCN(CC)c1ccc2cc(/C=C/C(O)=C/C(C)=O)c(=O)oc2c1 landed at 447

C(#Cc1ccc2ncsc2c1)c1ccc(N(c2ccc(C#Cc3ccc4ncsc4c3)cc2)c2ccc(C#Cc3ccc4ncsc4c3)cc2)cc1 yielded absorption maximum of 380

Entry under test: c1ccc2c(c1)[nH]c1c3[nH]c4ccccc4c3c3nsnc3c21 . Its absorption maximum was 410
